- Tested on: wheat (Triticum aestivum var. Lew)
- procedure.summary: post-emergence herbicidal activity, wheat
- Format: in vivo
- condition.label: 1 Kg/Ha, about fourteen days, read-out: post-emergence herbicidal activity (% control) WHT
Form field: activity at 1000 g/ha (one value per entry).
Only the number, expressed in %, is required.

A selection of reference data follows.
# get_value(readout= activity at 1000 g/ha, system= wheat (Triticum aestivum var. Lew)) for Cn1c(C(F)(F)F)cc(=O)n(-c2ccc(Cl)c3c2CN(CC2CC2)C3=O)c1=O
100

Notebook: pull reported activity at 1000 g/ha for wheat (Triticum aestivum var. Lew), entry Cn1c(C(F)(F)F)cc(=O)n(-c2ccc(Cl)c3c2CN(C2CCCC2)C3=O)c1=O
100

Lab request: please report activity at 1000 g/ha under test system wheat (Triticum aestivum var. Lew) for CC(C)N1Cc2c(ccc(Cl)c2-n2c(=O)cc(C(F)(F)F)n(C)c2=O)C1=O
70

activity at 1000 g/ha of Cn1c(C(F)(F)F)cc(=O)n(-c2c(Cl)cc(Cl)c3c2CNC3=O)c1=O on wheat (Triticum aestivum var. Lew)?
50

More entries:
wheat (Triticum aestivum var. Lew) / activity at 1000 g/ha / CCOC(=O)Cn1c(C(F)(F)F)cc(=O)n(-c2ccc(Cl)c3c2CN(C(C)C)C3=O)c1=O : value?
10

====

Measured activity at 1000 g/ha accompanies every entry in the list below.
- Tested on: wheat (Triticum aestivum var. Lew)
- procedure.summary: post-emergence herbicidal activity, wheat
- Format: in vivo
- condition.label: 1 Kg/Ha, about fourteen days, read-out: post-emergence herbicidal activity (% control) WHT
Entry format: amount then unit.

Look over these answered cases.
Record Cn1c(C(F)(F)F)cc(=O)n(-c2ccc(Cl)c3c2CN(Cc2ccccc2)C3=O)c1=O : what is its activity at 1000 g/ha with wheat (Triticum aestivum var. Lew)?
40%

Give activity at 1000 g/ha (wheat (Triticum aestivum var. Lew)) of the following molecule: C=CCn1c(C(F)(F)F)cc(=O)n(-c2ccc(Cl)c3c2CN(C(C)C)C3=O)c1=O
50%

Observed activity at 1000 g/ha on wheat (Triticum aestivum var. Lew) for C=CCON1Cc2c(-n3c(=O)cc(C(F)(F)F)n(C)c3=O)ccc(Cl)c2C1=O , please.
100%

Find activity at 1000 g/ha (wheat (Triticum aestivum var. Lew)) for the entry CC(C)N1Cc2c(c(Cl)cc(Cl)c2-n2c(=O)cc(C(F)(F)F)n(C)c2=O)C1=O
100%

Hello, I am looking for reported activity at 1000 g/ha with wheat (Triticum aestivum var. Lew) for CCCN1Cc2c(-n3c(=O)cc(C(F)(F)F)n(C)c3=O)ccc(Cl)c2C1=O . Could you help?
100%

Return activity at 1000 g/ha measured with wheat (Triticum aestivum var. Lew) given this molecule: Cn1c(C(F)(F)F)cc(=O)n(-c2c(Cl)cc(Cl)c3c2CN(C(C)(C)C)C3=O)c1=O
80%

Further cases:
# get_value(readout= activity at 1000 g/ha, system= wheat (Triticum aestivum var. Lew)) for Cn1c(C(F)(F)F)cc(=O)n(-c2ccc(Cl)c3c2CN(C2CCCCC2)C3=O)c1=O
80%

Recall the recorded activity at 1000 g/ha for Cn1c(C(F)(F)F)cc(=O)n(-c2ccc(Cl)c3c2CN(C(C)(C)C)C3=O)c1=O with wheat (Triticum aestivum var. Lew) and state it.
100%

So what activity at 1000 g/ha did CC(C)N1Cc2c(-n3nc4n(c3=O)CCCC4)ccc(Cl)c2C1=O get with wheat (Triticum aestivum var. Lew)?
30%

Which measured activity at 1000 g/ha belongs to CC(C)N1Cc2c(c(Cl)cc(Cl)c2N2C(=O)C3=C(CCCC3)C2=O)C1=O , tested on wheat (Triticum aestivum var. Lew)?
40%

Give wheat (Triticum aestivum var. Lew) activity at 1000 g/ha for CCON1Cc2c(-n3c(=O)cc(C(F)(F)F)n(C)c3=O)ccc(Cl)c2C1=O
100%

Request body: readout activity at 1000 g/ha, system wheat (Triticum aestivum var. Lew), query C#CCN1Cc2c(-n3c(=O)cc(C(F)(F)F)n(C)c3=O)ccc(Cl)c2C1=O . Return the value.
100%

====

- System: soybean (Glycine max -- var. Winchester)
- procedure.summary: pre-emergence herbicidal activity, soybean
- Format: in vivo
- condition.label: 1 kg/Ha, about fourteen days, read-out: pre-emergence herbicidal activity (% control) SOY
measured.quantity: activity at 1000 g/ha (%)
Return type: number; implicit unit %.

// worked examples, activity at 1000 g/ha included
Which value of activity at 1000 g/ha has been reported for Cn1c(C(F)(F)F)cc(=O)n(-c2ccc(Cl)c3c2CNC3=O)c1=O [Compound 12] in the records?
100

For CCn1c(C(F)(F)F)cc(=O)n(-c2ccc(Cl)c3c2CN(C(C)C)C3=O)c1=O [Compound 71] , what is its reported activity at 1000 g/ha?
100

Next:
Form field: reported activity at 1000 g/ha of C=CCON1Cc2c(-n3c(=O)cc(C(F)(F)F)n(C)c3=O)ccc(Cl)c2C1=O [Compound 17]
100

====

Let's look at some compounds and their measured activity at 1000 g/ha.
- Tested on: wheat (Triticum aestivum var. Lew)
- procedure.summary: pre-emergence herbicidal activity, wheat
- Assay type: in vivo
- condition.label: 1 kg/Ha, about fourteen days, read-out: pre-emergence herbicidal activity (% control) WHT
- Description: This example sets forth the methods of herbicidal testing conducted on the specific compounds set forth below. Specifically, the compounds referenced below were tested for pre- and post-emergence herbicidal activity using a variety of crops and weeds. […]
Kindly provide the numeric value in % only, without the unit symbol.

Reference set, count: 4
Entry CC(C)N1Cc2c(-n3nc4n(c3=O)CCCC4)ccc(Cl)c2C1=O : reported activity at 1000 g/ha = ?
10

Query (compound): CCCn1c(C(F)(F)F)cc(=O)n(-c2ccc(Cl)c3c2CN(C(C)C)C3=O)c1=O ; field requested: activity at 1000 g/ha
30

What measured activity at 1000 g/ha goes with COCN1Cc2c(-n3c(=O)cc(C(F)(F)F)n(C)c3=O)ccc(Cl)c2C1=O ?
100

What value of activity at 1000 g/ha has been reported for the following compound? C#CCn1c(C(F)(F)F)cc(=O)n(-c2ccc(Cl)c3c2CN(C(C)C)C3=O)c1=O
100

Lab note: next compound to report on.
Need activity at 1000 g/ha of CCn1c(C(F)(F)F)cc(=O)n(-c2ccc(Cl)c3c2CN(C(C)C)C3=O)c1=O , thanks.
100

====

- System: blackgrass (Aloepecurus myosuroides)
- procedure.summary: post-emergence herbicidal activity, blackgrass
- Format: in vivo
- condition.label: Alopecurus myosuroides, 1 Kg/Ha, about fourteen days, read-out: post-emergence herbicidal activity (% control) ALOMY
measured.quantity: activity at 1000 g/ha

Identify the measured activity at 1000 g/ha of CCn1c(C(F)(F)F)cc(=O)n(-c2ccc(Cl)c3c2CN(C(C)C)C3=O)c1=O for blackgrass (Aloepecurus myosuroides).
100%

Tell me reported activity at 1000 g/ha for CC(C)N1Cc2c(-n3c(=O)cc(C(F)(F)F)n(Cc4ccccc4)c3=O)ccc(Cl)c2C1=O , tested with blackgrass (Aloepecurus myosuroides).
70%

Give the reported activity at 1000 g/ha for CC(C)N1Cc2c(ccc(Cl)c2-n2c(=O)cc(C(F)(F)F)n(C)c2=O)C1=O (system: blackgrass (Aloepecurus myosuroides)).
75%

# returns recorded activity at 1000 g/ha (system: blackgrass (Aloepecurus myosuroides)) for CCOC(=O)Cn1c(C(F)(F)F)cc(=O)n(-c2ccc(Cl)c3c2CN(C(C)C)C3=O)c1=O
30%

Form entry - test system: blackgrass (Aloepecurus myosuroides); read-out: activity at 1000 g/ha; compound: Cn1c(C(F)(F)F)cc(=O)n(-c2ccc(Cl)c3c2CN(Cc2ccc(Cl)cc2)C3=O)c1=O
70%

# returns recorded activity at 1000 g/ha (system: blackgrass (Aloepecurus myosuroides)) for CC(C)N1Cc2c(c(Cl)cc(Cl)c2N2C(=O)C3=C(CCCC3)C2=O)C1=O
100%

Recall the recorded activity at 1000 g/ha for COCCN1Cc2c(-n3c(=O)cc(C(F)(F)F)n(C)c3=O)ccc(Cl)c2C1=O with blackgrass (Aloepecurus myosuroides) and state it.
100%

More entries:
# get_value(readout= activity at 1000 g/ha, system= blackgrass (Aloepecurus myosuroides)) for CC(C)N1Cc2c(c(Cl)cc(Cl)c2-n2c(=O)cc(C(F)(F)F)n(C)c2=O)C1=O
100%

====

- Test system: wheat (Triticum aestivum var. Lew)
- procedure.summary: post-emergence herbicidal activity, wheat
- Format: in vivo
- condition.label: 1 Kg/Ha, about fourteen days, read-out: post-emergence herbicidal activity (% control) WHT
measured.quantity: activity at 1000 g/ha (%)
Your answer is read as %, so omit the unit and give the number.

// known answers, use as guide
GET /values?readout=activity at 1000 g/ha&item= CC(C)N1Cc2c(-n3c(=O)cc(C(F)(F)F)n(C)c3=O)ccc(Cl)c2C1=O [Compound 3]
100

Param item = CCOC(=O)CN1Cc2c(-n3c(=O)cc(C(F)(F)F)n(C)c3=O)ccc(Cl)c2C1=O [Compound 7] ; retrieve measured activity at 1000 g/ha.
20

Sample Cn1c(C(F)(F)F)cc(=O)n(-c2ccc(Cl)c3c2CN(CC#N)C3=O)c1=O [Compound 30] — what was its activity at 1000 g/ha?
60

Note: attention shifts to another entry.
What measured activity at 1000 g/ha goes with CC(C)N1Cc2c(-n3c(=O)cc(C(F)(F)F)n(Cc4ccccc4)c3=O)ccc(Cl)c2C1=O [Compound 73] ?
50
